# Tested on: EMT-6 tumors
# assay name: Biodistribution of 18F-labeled ligands in mice bearing EMT-6 tumors
# Format: in vivo, female Balb/c mice
# measurement context: 60 min after i.v. injection
Here the recorded Biodistribution: blood is given for each entry.
Give a bare numeral; the unit %ID/g is implied.

Worked set:
COc1cc2c(cc1OC)CN(CCCCNC(=O)c1cc(C)ccc1OCC[18F])CC2 [[^18F]3c] | 0.56
COc1cc2c(cc1OC)CN(CCCCNC(=O)c1cc(I)ccc1OCC[18F])CC2 [[^18F]3e] | 3.39
COc1cc2c(cc1OC)CN(CCCCNC(=O)c1cc(I)cc(OC)c1OCC[18F])CC2 [[^18F]3f] | 0.65

Now turn to the next compound.
Form field, Biodistribution: blood with EMT-6 tumors, item COc1cc2c(cc1OC)CN(CCCCNC(=O)c1cc(Br)ccc1OCC[18F])CC2 [[^18F]3d] : 1.69

----------
# Test system: EMT-6 tumors
# assay name: Biodistribution of 18F-labeled ligands in mice bearing EMT-6 tumors
# Assay type: in vivo, female Balb/c mice
# measurement context: 120 min after i.v. injection
// reported Biodistribution: heart per item
A number alone suffices; assume %ID/g.

Previously resolved entries follow.
COc1cc2c(cc1OC)CN(CCCCNC(=O)c1cc(I)ccc1OCC[18F])CC2 [[^18F]3e] | 1.00
COc1cc2c(cc1OC)CN(CCCCNC(=O)c1cc(Br)ccc1OCC[18F])CC2 [[^18F]3d] | 0.40
COc1cc2c(cc1OC)CN(CCCCNC(=O)c1cc(I)cc(OC)c1OCC[18F])CC2 [[^18F]3f] | 0.39

Note: attention shifts to another entry.
The recorded Biodistribution: heart for COc1cc2c(cc1OC)CN(CCCCNC(=O)c1cc(C)ccc1OCC[18F])CC2 [[^18F]3c] is 0.27

----------
Measured Biodistribution: fat values are reported for all entries that follow.
# Test system: EMT-6 tumors
# assay name: Biodistribution of 18F-labeled ligands in mice bearing EMT-6 tumors
# Type: in vivo, female Balb/c mice
# measurement context: 60 min after i.v. injection
Quick reminder: number only, in %ID/g, skip the unit.

Please fill in: Biodistribution: fat reported for COc1cc2c(cc1OC)CN(CCCCNC(=O)c1cc(C)ccc1OCC[18F])CC2 [[^18F]3c] = 0.22

# Biodistribution: fat of COc1cc2c(cc1OC)CN(CCCCNC(=O)c1cc(I)cc(OC)c1OCC[18F])CC2 [[^18F]3f] = 0.47

Notebook: COc1cc2c(cc1OC)CN(CCCCNC(=O)c1cc(I)ccc1OCC[18F])CC2 [[^18F]3e] , Biodistribution: fat read as 0.62

Consider COc1cc2c(cc1OC)CN(CCCCNC(=O)c1cc(Br)ccc1OCC[18F])CC2 [[^18F]3d] . Its measured Biodistribution: fat is 0.38

----------
# Tested on: EMT-6 tumors
# assay name: Biodistribution of 18F-labeled ligands in mice bearing EMT-6 tumors
# Format: in vivo, female Balb/c mice
# measurement context: 5 min after i.v. injection
# Method: This example illustrates in vivo evaluation of compounds of the present teachings. All animal experiments were conducted in compliance with the Guidelines for the Care and Use of Research Animals established by Washington University's Animal Studies Committee. […] After counting, the percentage of the injected dose per gram of tissue (%ID/g) was calculated. The tumor/organ ratios were calculated by dividing the %ID/g of the tumor by the %ID/g of each organ.
Entries and their Biodistribution: tumor (tumor uptake)

COc1cc2c(cc1OC)CN(CCCCNC(=O)c1cc(C)ccc1OCC[18F])CC2 [[^18F]3c] | 3.67 ± 0.45 %ID/g

Biodistribution: tumor (tumor uptake) measured on COc1cc2c(cc1OC)CN(CCCCNC(=O)c1cc(I)ccc1OCC[18F])CC2 [[^18F]3e] = 2.54 ± 0.62 %ID/g

Biodistribution: tumor (tumor uptake) reading for COc1cc2c(cc1OC)CN(CCCCNC(=O)c1cc(Br)ccc1OCC[18F])CC2 [[^18F]3d] : 3.28 ± 0.41 %ID/g

Field Biodistribution: tumor (tumor uptake) (entry COc1cc2c(cc1OC)CN(CCCCNC(=O)c1cc(I)cc(OC)c1OCC[18F])CC2 [[^18F]3f] ) reads 3.05 ± 0.43 %ID/g

----------
# Test system: EMT-6 tumors
# assay name: Biodistribution of 18F-labeled ligands in mice bearing EMT-6 tumors
# Type: in vivo, female Balb/c mice
# measurement context: 5 min after i.v. injection
Measured Biodistribution: liver values are reported for all entries that follow.
Lab book: enter the figure in %ID/g, no units written.

COc1cc2c(cc1OC)CN(CCCCNC(=O)c1cc(C)ccc1OCC[18F])CC2 [[^18F]3c] | 23.33
COc1cc2c(cc1OC)CN(CCCCNC(=O)c1cc(I)ccc1OCC[18F])CC2 [[^18F]3e] | 37.26
COc1cc2c(cc1OC)CN(CCCCNC(=O)c1cc(I)cc(OC)c1OCC[18F])CC2 [[^18F]3f] | 15.21

Attention now shifts to the item below.
I looked up COc1cc2c(cc1OC)CN(CCCCNC(=O)c1cc(Br)ccc1OCC[18F])CC2 [[^18F]3d] and its Biodistribution: liver for EMT-6 tumors was 32.60

----------
Readings of Biodistribution: blood for the listed compounds
# Tested on: EMT-6 tumors
# assay name: Biodistribution of 18F-labeled ligands in mice bearing EMT-6 tumors
# Format: in vivo, female Balb/c mice
# measurement context: 120 min after i.v. injection
Just the number please, in %ID/g, no unit attached.

COc1cc2c(cc1OC)CN(CCCCNC(=O)c1cc(Br)ccc1OCC[18F])CC2 [[^18F]3d] | 0.52
COc1cc2c(cc1OC)CN(CCCCNC(=O)c1cc(I)ccc1OCC[18F])CC2 [[^18F]3e] | 1.92
COc1cc2c(cc1OC)CN(CCCCNC(=O)c1cc(I)cc(OC)c1OCC[18F])CC2 [[^18F]3f] | 0.28

Reported Biodistribution: blood ( COc1cc2c(cc1OC)CN(CCCCNC(=O)c1cc(C)ccc1OCC[18F])CC2 [[^18F]3c] ) = 0.35

----------
# System: EMT-6 tumors
# assay name: Biodistribution of 18F-labeled ligands in mice bearing EMT-6 tumors
# Type: in vivo, female Balb/c mice
# measurement context: 30 min after i.v. injection
Biodistribution: kidney: recorded values
Could you write the number and then its unit?

Past entries and their recorded results:
COc1cc2c(cc1OC)CN(CCCCNC(=O)c1cc(Br)ccc1OCC[18F])CC2 [[^18F]3d] | 17.55 ± 2.75 %ID/g
COc1cc2c(cc1OC)CN(CCCCNC(=O)c1cc(I)ccc1OCC[18F])CC2 [[^18F]3e] | 17.43 ± 1.95 %ID/g
COc1cc2c(cc1OC)CN(CCCCNC(=O)c1cc(C)ccc1OCC[18F])CC2 [[^18F]3c] | 6.86 ± 0.45 %ID/g

Then this compound:
Biodistribution: kidney reading for COc1cc2c(cc1OC)CN(CCCCNC(=O)c1cc(I)cc(OC)c1OCC[18F])CC2 [[^18F]3f] : 7.73 ± 2.25 %ID/g

----------
# Biodistribution: heart per entry
# Test system: EMT-6 tumors
# assay name: Biodistribution of 18F-labeled ligands in mice bearing EMT-6 tumors
# Type: in vivo, female Balb/c mice
# measurement context: 60 min after i.v. injection
Form entry: value (%ID/g) — number only.

COc1cc2c(cc1OC)CN(CCCCNC(=O)c1cc(I)cc(OC)c1OCC[18F])CC2 [[^18F]3f] | 0.69
COc1cc2c(cc1OC)CN(CCCCNC(=O)c1cc(C)ccc1OCC[18F])CC2 [[^18F]3c] | 0.55
COc1cc2c(cc1OC)CN(CCCCNC(=O)c1cc(I)ccc1OCC[18F])CC2 [[^18F]3e] | 1.61

Next compound, Biodistribution: heart to be filled in.
For this compound ( COc1cc2c(cc1OC)CN(CCCCNC(=O)c1cc(Br)ccc1OCC[18F])CC2 [[^18F]3d] ), measured Biodistribution: heart is 1.04

----------
Listed compounds paired with reported σ1:σ2 Ratio
# target: σ2 receptors (Rattus norvegicus, UniProt Q5U3Y7)
# Construct: conducted using rat liver membrane homogenates; from tissue; host or cells: rat liver membrane homogenates
# Sequence (Q5U3Y7 whole entry): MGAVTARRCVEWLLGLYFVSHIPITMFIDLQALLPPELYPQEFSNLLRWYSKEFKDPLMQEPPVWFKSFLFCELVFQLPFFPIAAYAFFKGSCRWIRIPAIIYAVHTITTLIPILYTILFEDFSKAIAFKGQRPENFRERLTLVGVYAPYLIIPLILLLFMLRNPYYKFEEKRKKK
# assay name: σ2 receptor binding assay, [^3H]DTG in the presence of (+)-pentazocine, rat liver membrane homogenates
# measurement context: ratio of Ki values
Provide a numeric answer; units are not to be included.

COc1cc2c(cc1OC)CN(CCNC(=O)c1cc(C)ccc1OCCF)CC2 [compound 3a] | 222

Per the record, COc1cc2c(cc1OC)CN(CCCCNC(=O)c1cc(C)ccc1OCCF)CC2 [compound 3c] has σ1:σ2 Ratio of 48

----------
We begin with a simple list: items and their reported Biodistribution: lung.
# System: EMT-6 tumors
# assay name: Biodistribution of 18F-labeled ligands in mice bearing EMT-6 tumors
# Assay type: in vivo, female Balb/c mice
# measurement context: 5 min after i.v. injection
Respond numerically; units are %ID/g and should not be typed.

Examples from the recorded data:
COc1cc2c(cc1OC)CN(CCCCNC(=O)c1cc(I)cc(OC)c1OCC[18F])CC2 [[^18F]3f] | 18.47
COc1cc2c(cc1OC)CN(CCCCNC(=O)c1cc(Br)ccc1OCC[18F])CC2 [[^18F]3d] | 12.08
COc1cc2c(cc1OC)CN(CCCCNC(=O)c1cc(C)ccc1OCC[18F])CC2 [[^18F]3c] | 10.26

API: the following record is the query input.
Item: COc1cc2c(cc1OC)CN(CCCCNC(=O)c1cc(I)ccc1OCC[18F])CC2 [[^18F]3e] | Biodistribution: lung: 9.71
